growth values by entry
Tested on: EKVX NSCLC
Assay: NCI-60 one-dose screen, 48 h (100 = growth as untreated, 0 = no growth, -100 = all killed)
Conditions: 10 µM unless noted
The panel holds about 83,000 compounds, 20% with a hit somewhere; the sample as a whole holds those more often.

Compound: CN(Cc1cc(Cl)cc(Cl)c1O)Cc1cc(Cl)cc(Cl)c1O
Target under test: EKVX NSCLC
growth / %: 83.6
//
Compound: O=C1CSC(=S)N1CCc1ccc(O)cc1
Target under test: EKVX NSCLC
growth / %: 97.8
//
Compound: CC(=O)O[C@H]1CC[C@]2(C)[C@H]3CC=C4[C@@H]5CC(C)(C)CC[C@]5(C(=O)NCCNCCN)CC[C@@]4(C)[C@]3(C)CC[C@H]2C1(C)C
Target under test: EKVX NSCLC
growth / %: 28.8
//
Compound: OC(c1cc2cc(Cl)c(Cl)cc2c2cc(C(F)(F)F)ccc12)C1CCCCN1 (stereo unspecified)
Target under test: EKVX NSCLC
growth / %: -24.8
//
Compound: COc1ccc2cc(-c3nn(-c4ccc(C(=O)O)cc4)cc3CO)ccc2c1
Target under test: EKVX NSCLC
growth / %: 90.7
//
Compound: O=C1c2cc3c(cc2-c2c1c1ccc(F)cc1c(=O)n2C[C@H](O)[C@@H](O)[C@H](O)CO)OCO3
Target under test: EKVX NSCLC
growth / %: 13
//
Compound: CC(C)C[C@@H](NC(=O)[C@@H](Cc1ccccc1)NC(=O)c1cnccn1)B1Oc2ccc(C[C@H](NC(=O)[C@H](Cc3ccc4c(c3)OB([C@@H](CC(C)C)NC(=O)[C@@H](Cc3ccccc3)NC(=O)c3cnccn3)O4)NC(=O)[C@@H](N)CC3CCC4OB([C@@H](CC(C)C)NC(=O)[C@@H](CC5CCCCC5)NC(=O)C5CNCCN5)OC4C3)C(=O)NCCCC[C@@H]3NC(=O)[C@@H](Cc4ccccc4)NC(=O)[C@H](CC(=O)O)NC(=O)CNC(=O)[C@H](CCCNC(=N)N)NC3=O)cc2O1 (stereo partly specified)
Target under test: EKVX NSCLC
growth / %: -16.4
//
Compound: O=S(=O)(Nc1ccc(NS(=O)(=O)c2ccccc2)c(Cl)c1)c1ccccc1
Target under test: EKVX NSCLC
growth / %: 106
//
Compound: COc1cccc(-c2nn(C(C)(C)C)cc2-c2ccnc(NCCCNS(=O)(=O)c3ccc(C)cc3)c2)c1
Target under test: EKVX NSCLC
growth / %: 100
//
Compound: CCN1CCC2(CC1)NC(=O)c1c(c3ccc(Cl)c(Cl)c3n1C)C2C#N (stereo unspecified)
Target under test: EKVX NSCLC
growth / %: 68.8
//
Compound: O=CNc1ccc2c(c1)Cc1cccc(NC=O)c1-2
Target under test: EKVX NSCLC
growth / %: 80.4
//
Compound: CCCn1c(=O)[nH]c(N)c([C@H]2c3ccccc3Oc3[nH]c(=O)n(CCC)c(=O)c32)c1=O
Target under test: EKVX NSCLC
growth / %: 93.2
//
Compound: COc1ccc(/C=C\c2cc(OC)c(OC)c(OC)c2)cc1OC(=O)c1cccc(Cn2cc(CCOC(=O)[C@H](N)Cc3cn(C)c4ccccc34)nn2)c1
Target under test: EKVX NSCLC
growth / %: 47.2
//
Compound: O=c1ccccc(-c2ccc(Br)cc2)c1O
Target under test: EKVX NSCLC
growth / %: 6.92
//
Compound: O=C(/C=C/c1cccc(Cl)c1)c1ccc(O)c(CN2CCN(c3cc4c(cc3F)c(=O)c(C(=O)O)cn4C3CC3)CC2)c1
Target under test: EKVX NSCLC
growth / %: 55.7
//
Compound: Clc1ccc2nc3nc4ccc[nH]c4cc3c2c1
Target under test: EKVX NSCLC
growth / %: 68.2

Entry source: PubChem BioAssay (NCI)
